Listing: pEC50 of selected compounds
molecular target: Metabotropic glutamate receptor 5 (Rattus norvegicus, UniProt P31424); test: Positive allosteric modulation at rat mGluR5 receptor expressed in HEK293 cells assessed as glutamate-induced calcium fluorescence by Fluo-4/AM dye-based fluorescence assay; assay type: functional, cell-based; conditions: read-out: EC50
Sequence (P31424 whole entry): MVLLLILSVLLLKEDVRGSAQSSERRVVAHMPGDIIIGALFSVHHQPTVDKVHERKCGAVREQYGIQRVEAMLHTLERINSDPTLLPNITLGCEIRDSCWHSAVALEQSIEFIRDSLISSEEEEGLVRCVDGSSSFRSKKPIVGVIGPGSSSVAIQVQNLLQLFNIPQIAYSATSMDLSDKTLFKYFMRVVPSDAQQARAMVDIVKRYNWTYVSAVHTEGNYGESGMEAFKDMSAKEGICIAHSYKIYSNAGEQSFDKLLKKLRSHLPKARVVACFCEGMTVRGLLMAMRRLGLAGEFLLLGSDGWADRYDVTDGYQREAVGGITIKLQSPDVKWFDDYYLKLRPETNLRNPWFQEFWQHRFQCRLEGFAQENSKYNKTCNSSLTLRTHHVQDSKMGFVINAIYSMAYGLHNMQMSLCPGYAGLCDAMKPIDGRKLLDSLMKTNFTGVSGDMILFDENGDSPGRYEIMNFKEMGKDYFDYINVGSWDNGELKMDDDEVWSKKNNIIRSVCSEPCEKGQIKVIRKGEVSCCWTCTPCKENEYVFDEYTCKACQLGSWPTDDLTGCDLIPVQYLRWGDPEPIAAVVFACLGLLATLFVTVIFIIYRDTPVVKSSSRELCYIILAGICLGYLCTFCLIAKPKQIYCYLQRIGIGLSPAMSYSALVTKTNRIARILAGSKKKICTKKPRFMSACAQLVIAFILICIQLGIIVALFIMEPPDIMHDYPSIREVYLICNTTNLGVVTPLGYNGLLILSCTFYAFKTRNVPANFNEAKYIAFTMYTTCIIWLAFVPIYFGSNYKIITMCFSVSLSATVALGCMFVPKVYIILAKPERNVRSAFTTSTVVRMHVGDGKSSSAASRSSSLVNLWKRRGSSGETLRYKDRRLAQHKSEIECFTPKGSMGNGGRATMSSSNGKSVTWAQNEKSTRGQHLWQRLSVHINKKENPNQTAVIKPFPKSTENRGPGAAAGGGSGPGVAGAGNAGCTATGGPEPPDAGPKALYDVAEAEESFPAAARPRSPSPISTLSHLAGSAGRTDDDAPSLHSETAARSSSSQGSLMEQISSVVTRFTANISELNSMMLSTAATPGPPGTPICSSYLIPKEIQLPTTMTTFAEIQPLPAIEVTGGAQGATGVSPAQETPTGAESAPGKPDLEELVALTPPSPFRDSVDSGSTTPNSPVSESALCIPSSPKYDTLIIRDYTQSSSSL
Expect pEC50 as a plain number equal to -log10 of the molar concentration.

N#Cc1ccccc1N1CCN(C(=O)COCc2ccccc2)CC1 | 5.80
COc1ccccc1N1CCN(C(=O)COCc2ccccc2)CC1 | 5.04
O=C(COCc1ccccc1)N1CCN(c2ccccn2)CC1 | 5.27

Ask: // returns reported pEC50 for input O=C(COCc1ccccc1)N1CCN(c2ccccc2Cl)CC1
Result: 6.09

Ask: // returns reported pEC50 for input O=C(COCc1ccccc1)N1CCN(c2ccccc2[N+](=O)[O-])CC1
Result: 5.74

Ask: // returns reported pEC50 for input O=C(COCc1ccccc1)N1CCN(c2ncccc2C(F)(F)F)CC1
Result: 5.37
